# system: UniProt P40337
# assayProtocol: VHL HEK-293 BRET Assay (VHL NanoBRET Target Engagement Assay)
# conditionsUsed: HEK 293 RT VHL-NanoLuc stable cells; 1 uM tracer; 2 hours; geometric mean where more than one measurement; read-out: VHL binding in cells (HEK293 nanoBRET)
pIC50: −log10 of the molar value.
measurementLabel: pIC50

Cc1ncsc1-c1ccc(CNC(=O)[C@@H]2C[C@@H](O)CN2C(=O)[C@@H](n2cc(C3CC3)nn2)C(C)(C)c2ccccc2)cc1 [Example S26]: 7.70
COC(=O)c1nnn([C@@H](C(=O)N2C[C@H](O)C[C@H]2C(=O)N[C@H](Cc2ccc(-c3ccccc3)cc2)C(N)=O)C(C)C)c1C (single isomer, unassigned) [Isomer A from Example S33]: 4.20
CC(C)(C)[C@@H](C(=O)N1C[C@H](O)C[C@H]1C(=O)N[C@H](Cc1ccc(-c2ccccc2)cc1)C(N)=O)n1cc(C2CC2)nn1 [Example S3]: 6.82
Cc1ncsc1-c1ccc(C(C)NC(=O)[C@@H]2C[C@@H](O)CN2C(=O)[C@@H](n2cc(C3CC3)nn2)C23CC4CC(CC(C4)C2)C3)c(Cl)c1 (stereo partly drawn) [Example S23]: 7.70
Cc1ncsc1-c1ccc([C@@H](NC(=O)[C@@H]2C[C@@H](O)CN2C(=O)[C@@H](n2cc(C3CC3)nn2)C(C)(C)C)C(F)(F)F)cc1 [Example S40]: 7.10
Cc1ncsc1-c1ccc(CNC(=O)[C@@H]2C[C@@H](O)CN2C(=O)[C@@H](n2cc(C3(C)CC3)nn2)C(C)(C)C)cc1 [Example S29]: 8.00
Cc1ncsc1-c1ccc2c(c1)CCCC[C@@H]2NC(=O)[C@@H]1C[C@@H](O)CN1C(=O)[C@@H](n1cc(C2CC2)nn1)C(C)(C)C [Example S45]: 6.70

[1] Cc1ncsc1-c1ccc(CNC(=O)[C@@H]2C[C@@H](O)CN2C(=O)[C@@H](n2cc(Cc3ccccc3)nn2)C(C)(C)C)cc1 [Example S27]
[2] Cc1ncsc1-c1ccc(C(C)NC(=O)[C@@H]2C[C@@H](O)CN2C(=O)[C@@H](n2cc(C3CC3)nn2)C(C)(C)C)c(Cl)c1 (stereo partly drawn) [Example S22]
// compare measured pIC50 between 1 and 2 ; output the lower one Give the label under which the chosen entry appears. 1

---

# system: VHL (Homo sapiens, UniProt P40337)
# Construct: expressed in transfected cells
# Sequence (P40337 whole entry): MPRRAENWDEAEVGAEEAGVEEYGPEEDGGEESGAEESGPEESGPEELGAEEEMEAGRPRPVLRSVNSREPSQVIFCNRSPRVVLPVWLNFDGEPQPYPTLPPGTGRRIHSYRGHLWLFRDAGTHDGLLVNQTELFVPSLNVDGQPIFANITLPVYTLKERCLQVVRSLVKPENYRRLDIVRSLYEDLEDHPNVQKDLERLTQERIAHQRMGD
# assayProtocol: VHL HEK-293 BRET Assay (VHL NanoBRET Target Engagement Assay)
# Assay type: cell-based
# conditionsUsed: ratio not defined
measurementLabel: Ratio cell permeability shift

[I] COC(=O)c1nnn([C@H](C(=O)N2C[C@H](O)C[C@H]2C(=O)N[C@H](Cc2ccc(-c3ccccc3)cc2)C(N)=O)C(C)C)c1C (single isomer, unassigned) [Isomer B from Example S33]
[II] CC(C)(C)[C@@H](C(=O)N1C[C@H](O)C[C@H]1C(=O)N[C@H](Cc1ccc(-c2ccccc2)cc1)C(N)=O)n1cc(C(=O)O)nn1 [Example S15]
[III] NC(=O)[C@@H](Cc1ccc(-c2ccccc2)cc1)NC(=O)[C@@H]1C[C@@H](O)CN1C(=O)[C@@H](n1cc(C2CC2)nn1)C12CC3CC(CC(C3)C1)C2 [Example S8]
Please give the order of these compounds when sorted by Ratio cell permeability shift, largest value leading. Answer format: the labels, in the requested order. II, I, III
(II: 115.18, I: 1.64, III: 0.73)

---

# system: VHL (Homo sapiens, UniProt P40337)
# Construct: expressed in transfected cells
# assayProtocol: VHL HEK-293 BRET Assay (VHL NanoBRET Target Engagement Assay)
# Assay type: cell-based
# conditionsUsed: ratio not defined
measurementLabel: Ratio cell permeability shift

Cc1ncsc1-c1ccc([C@@H](NC(=O)[C@@H]2C[C@@H](O)CN2C(=O)[C@@H](n2cc(C3CC3)nn2)C(C)(C)C)C(F)(F)F)cc1: 0.74
C#CC1(c2cn([C@H](C(=O)N3C[C@H](O)C[C@H]3C(=O)NCc3ccc(-c4scnc4C)cc3)C(C)(C)C)nn2)CC1: 1.15
CCC(C)(C)[C@@H](C(=O)N1C[C@H](O)C[C@H]1C(=O)N[C@H](Cc1ccc(-c2ccccc2)cc1)C(N)=O)n1cc(C2CC2)nn1: 0.76
CC(C)[C@@H](C(=O)N1C[C@H](O)C[C@H]1C(=O)N[C@H](Cc1ccc(-c2ccccc2)cc1)C(N)=O)n1nnc2ccccc21 (single isomer, unassigned) [Isomer A from Example S36]: 0.77
C[C@H](NC(=O)[C@@H]1C[C@@H](O)CN1C(=O)[C@@H](n1cc(C2CC2)nn1)C(C)(C)C)c1ccc(-c2ccccc2Cl)cc1: 0.84
Cc1ncsc1-c1ccc(CNC(=O)[C@@H]2C[C@@H](O)CN2C(=O)[C@@H](n2cc(C3(C(F)(F)F)CC3)nn2)C(C)(C)C)cc1: 0.98

---

# system: VHL (Homo sapiens)
# assayProtocol: VHL HEK-293 BRET Assay (VHL NanoBRET Target Engagement Assay)
# conditionsUsed: HEK 293 RT VHL-NanoLuc stable cells; 1 uM tracer; 2 hours; geometric mean where more than one measurement; read-out: VHL binding in cells (HEK293 nanoBRET)
measurementLabel: IC50 (nM)

Example entries and their recorded answers appear below.
C=CC(C)(C)[C@@H](C(=O)N1C[C@H](O)C[C@H]1C(=O)N[C@H](Cc1ccc(-c2ccccc2)cc1)C(N)=O)n1cc(C2CC2)nn1: 110
CC(C)[C@@H](C(=O)N1C[C@H](O)C[C@H]1C(=O)N[C@H](Cc1ccc(-c2ccccc2)cc1)C(N)=O)n1cc(-c2ccco2)nn1: 110
CC(C)(C)[C@@H](C(=O)N1C[C@H](O)C[C@H]1C(=O)NCc1ccc(-c2ccccc2F)cc1)n1cc(C2CC2)nn1: 30

[I] CCC(C)(C)[C@@H](C(=O)N1C[C@H](O)C[C@H]1C(=O)N[C@H](Cc1ccc(-c2ccccc2)cc1)C(N)=O)n1cc(C2CC2)nn1
[II] Cc1ncsc1-c1ccc([C@H](C)NC(=O)[C@@H]2C[C@@H](O)CN2C(=O)[C@@H](n2cc(C3CC3)nn2)C(C)(C)C)cc1
Select one: I or II . Criterion: greater recorded IC50. Give the label under which the chosen entry appears. I
(I: 100 nM, II: 10 nM)

---

# system: VHL (Homo sapiens, UniProt P40337)
# Construct: expressed in transfected cells
# assayProtocol: VHL HEK-293 BRET Assay (VHL NanoBRET Target Engagement Assay)
# Format: cell-based
# conditionsUsed: ratio not defined
# Procedure: The VHL NanoBRET™ Target Engagement Assay analyzes the apparent affinity of test compounds for VHL in cells by competitive displacement of a VHL NanoBRET™ tracer reversibly bound to a NanoLuc® VHL fusion protein stably expressed in the cells. […] The raw BRET ratio values were calculated by dividing the acceptor emission value (610 nm) by the donor emission value (460 nm) for each sample. […] Percentage inhibition was calculated relative to the Minimum Signal control and Maximum Signal control wells. […]
measurementLabel: Ratio cell permeability shift

Example entries and their recorded answers appear below.
CC(=O)NCCOCc1cn([C@H](C(=O)N2C[C@H](O)C[C@H]2C(=O)N[C@H](Cc2ccc(-c3ccccc3)cc2)C(N)=O)C(C)(C)C)nn1 [Example S14]: 264.37
Cc1ncsc1-c1ccc(C(C)NC(=O)[C@@H]2C[C@@H](O)CN2C(=O)[C@@H](n2cc(C3CC3)nn2)C(C)(C)C)c(Cl)c1 (some centres unmarked) [Example S22]: 0.72

[1] COC(=O)c1nnn([C@@H](C(=O)N2C[C@H](O)C[C@H]2C(=O)N[C@H](Cc2ccc(-c3ccccc3)cc2)C(N)=O)C(C)C)c1C (single isomer, unassigned) [Isomer A from Example S33]
[2] Cc1ncsc1-c1ccc(CNC(=O)[C@@H]2C[C@@H](O)CN2C(=O)[C@@H](n2cc(Cc3ccccc3)nn2)C(C)(C)C)cc1 [Example S27]
[3] CC(=O)NCC1(c2cn([C@H](C(=O)N3C[C@H](O)C[C@H]3C(=O)N[C@H](Cc3ccc(-c4ccccc4)cc3)C(N)=O)C(C)(C)C)nn2)CC1 [Example S13]
Reorder: Ratio cell permeability shift, max to min. Answer format: the labels, in the requested order. 3, 1, 2
(3: 10.22, 1: 1.43, 2: 0.88)

---

# system: VHL (Homo sapiens, UniProt P40337)
# Construct: expressed in transfected cells
# assayProtocol: VHL HEK-293 BRET Assay (VHL NanoBRET Target Engagement Assay)
# Format: cell-based
# conditionsUsed: ratio not defined
measurementLabel: Ratio cell permeability shift

Example entries and their recorded answers appear below.
Cc1cnnn1[C@H](C(=O)N1C[C@H](O)C[C@H]1C(=O)N[C@H](Cc1ccc(-c2ccccc2)cc1)C(N)=O)C(C)C: 1.48
Cc1ncsc1-c1ccc([C@H](C)NC(=O)[C@@H]2C[C@@H](O)CN2C(=O)[C@@H](n2cc(C3CC3)nn2)C(C)(C)C)cc1: 0.85
CC[C@H](C)[C@@H](C(=O)N1C[C@H](O)C[C@H]1C(=O)N[C@H](Cc1ccc(-c2ccccc2)cc1)C(N)=O)n1cc(C2CC2)nn1: 0.77

[a] CC(C)[C@H](C(=O)N1C[C@H](O)C[C@H]1C(=O)N[C@H](Cc1ccc(-c2ccccc2)cc1)C(N)=O)n1nnc2ccccc21 (single isomer, unassigned) [Isomer B from Example S36]
[b] Cc1ncsc1-c1ccc(CNC(=O)[C@@H]2C[C@@H](O)CN2C(=O)[C@@H](n2cc(C3(c4cn([C@H](C(=O)N5C[C@H](O)C[C@H]5C(=O)NCc5ccc(-c6scnc6C)cc5)C(C)(C)C)nn4)CC3)nn2)C(C)(C)C)cc1
Select one: a or b . Criterion: greater recorded Ratio cell permeability shift. Give the label under which the chosen entry appears. b
(b: 19.75, a: 1.01)

[a] CC(C)(C)[C@@H](C(=O)N1C[C@H](O)C[C@H]1C(=O)NCc1ccc(-c2ccccc2F)cc1)n1cc(C2CC2)nn1
[b] C[C@H](NC(=O)[C@@H]1C[C@@H](O)CN1C(=O)[C@@H](n1cc(C2CC2)nn1)C(C)(C)C)c1ccc(-c2ccccc2F)cc1
Select one: a or b . Criterion: greater recorded Ratio cell permeability shift. Give the label under which the chosen entry appears. a
(a: 1.03, b: 0.72)
